Each recorded value in this set is attributed to patent US20260216170A1.

# subject_of_test: Human BCL-XL protein (N-terminal HiBiT tagged BCL-XL expressed in HT1080 cells) (Homo sapiens, UniProt Q07817)
# Construct: expressed in transfected cells; host or cells: HT-1080 (ATCC CCL-121), stably transduced with lentivirus pLV-UBC-N-HiBiT-BCL-XL-PGK-puro and selected with puromycin
# Sequence (Q07817 whole entry): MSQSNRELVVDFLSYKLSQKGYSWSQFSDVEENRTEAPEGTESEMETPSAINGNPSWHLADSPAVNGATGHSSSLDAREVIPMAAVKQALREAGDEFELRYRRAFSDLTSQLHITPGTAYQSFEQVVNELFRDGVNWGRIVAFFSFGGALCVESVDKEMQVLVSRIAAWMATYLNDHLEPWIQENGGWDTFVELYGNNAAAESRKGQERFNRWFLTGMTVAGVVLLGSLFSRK
# experimental_protocol: HiBiT Based Degradation Assay
# Assay type: cell-based
# assay_setup: bottom of BCL-XL degradation curve (remaining HiBiT-BCL-XL signal vs DMSO control), HT1080 cells, 24 hours incubation
# Protocol: HiBiT Based Degradation Assay Human BCL-XL protein coding open reading frame fused with N-terminal HiBiT coding sequence (N-HiBiT-BCL-XL) was synthesized from Integrated DNA Technologies (IDT). Next, N-HiBiT-BCL-XL sequence was cloned into pLV-UBC-PGK-Puro, a lentivirus plasmid purchased from Vectorbuilder, to generate pLV-UBC-N-HiBiT-BCL-XL-PGK-puro. […] After incubation, luminescence was read on a PHERAstar FSX Plate Reader (BMG). […]
measurement_label: Ymin (24 h)

Some compounds with recorded Ymin (24 h):
compound	Ymin (24 h)
Cc1cc(OC2CC3(CCN(CC(=O)Nc4ccc5c(C6CCC(=O)NC6=O)nn(C)c5n4)CC3)C2)ccc1-c1ccc(N2CCc3ccnc(C(=O)Nc4nc5ccccc5s4)c3C2)nc1C(=O)O (stereo not drawn) [Compound 213]	A (Ymin < 30%)
Cn1nc(C2CCC(=O)NC2=O)c2ccc(NC(=O)CN3CCC(CCCOc4ccc(-c5ccc(N6CCc7ccnc(C(=O)Nc8nc9ccccc9s8)c7C6)nc5C(=O)O)c(C(F)(F)F)c4)CC3)cc21 (stereo not drawn) [Compound 157]	A (Ymin < 30%)
COc1c(NC(=O)CN2CCC(CCCOc3cccc(-c4ccc(N5CCc6cccc(C(=O)Nc7nc8ccccc8s7)c6C5)nc4C(=O)O)c3C)CC2)ccc2c(C3CCC(=O)NC3=O)nn(C)c12 (stereo not drawn) [Compound 104]	B (30% ≤ Ymin < 50%)
Cc1c(NCCCC2CCN(CC(=O)Nc3ccc4c(C5CCC(=O)NC5=O)nn(C)c4c3)CC2)cccc1-c1ccc(N2CCc3cccc(C(=O)Nc4nc5ccccc5s4)c3C2)nc1C(=O)O (stereo not drawn) [Compound 217]	B (30% ≤ Ymin < 50%)
COc1c(NC(=O)CN2CCC3(CC2)CC(Oc2cccc(-c4ccc(N5CCc6cccc(C(=O)Nc7nc8ccccc8s7)c6C5)nc4C(=O)O)c2C(F)(F)F)C3)ccc2c(C3CCC(=O)NC3=O)nn(C)c12 (stereo not drawn) [Compound 166]	B (30% ≤ Ymin < 50%)
Cc1c(OC[C@H]2C[C@@H]2C2CCN(CC(=O)Nc3ccc4c(C5CCC(=O)NC5=O)nn(C)c4c3)CC2)cccc1-c1ccc(N2CCc3cccc(C(=O)Nc4nc5ccccc5s4)c3C2)nc1C(=O)O (single isomer, unassigned) [Compound 1001b]	B (30% ≤ Ymin < 50%)

Kindly note the recorded Ymin (24 h) for Cc1cc(OCCC2CC3(CCN(CC(=O)Nc4ccc5c(C6CCC(=O)NC6=O)nn(C)c5c4)CC3)C2)ccc1-c1ccc(N2CCc3cccc(C(=O)Nc4nc5ccccc5s4)c3C2)nc1C(=O)O (stereo not drawn) [Compound 115] , which is B (30% ≤ Ymin < 50%)

Kindly note the recorded Ymin (24 h) for Cc1c(OC2CC3(CCN(CC(=O)Nc4ccc5c(C6CCC(=O)NC6=O)nn(C)c5c4F)CC3)C2)cccc1-c1ccc(N2CCc3ccnc(C(=O)Nc4nc5ccccc5s4)c3C2)nc1C(=O)O (stereo not drawn) [Compound 204] , which is B (30% ≤ Ymin < 50%)

Kindly note the recorded Ymin (24 h) for Cn1nc(C2CCC(=O)NC2=O)c2ccc(NC(=O)CN3CCC4(CC3)CC(Oc3ccc(-c5ccc(N6CCc7cccc(C(=O)Nc8nc9ccccc9s8)c7C6)nc5C(=O)O)c(C(F)(F)F)c3)C4)c(F)c21 (stereo not drawn) [Compound 189] , which is B (30% ≤ Ymin < 50%)

====

# subject_of_test: Human BCL-XL protein (N-terminal HiBiT tagged BCL-XL expressed in HT1080 cells) (Homo sapiens)
# Construct: expressed in transfected cells; host or cells: HT-1080 (ATCC CCL-121), stably transduced with lentivirus pLV-UBC-N-HiBiT-BCL-XL-PGK-puro and selected with puromycin
# experimental_protocol: HiBiT Based Degradation Assay
# Format: cell-based
# assay_setup: BCL-XL degradation, HT1080 cells expressing N-HiBiT-BCL-XL, 24 hours incubation, normalized with DMSO control; geometric mean for multiple data points; read-out: EC50 (24 h)
Reported DC50 values for the following compounds.

compound	measurement_label	test_result
Cc1c(OCC2CC3(CCN(CC(=O)Nc4ccc5c(C6CCC(=O)NC6=O)nn(C)c5c4)CC3)C2)cccc1-c1ccc(N2CCc3ccnc(C(=O)Nc4nc5ccccc5s4)c3C2)nc1C(=O)O (stereo not drawn)	DC50	0.01 to 0.1 µM

Kindly note the recorded DC50 for COc1c(NC(=O)CN2CCC3(CC2)CC(COc2ccc(-c4ccc(N5CCc6ccnc(C(=O)Nc7nc8ccccc8s7)c6C5)nc4C(=O)O)c(C(F)(F)F)c2)C3)ccc2c(C3CCC(=O)NC3=O)nn(C)c12 (stereo not drawn) , which is 0.01 to 0.1 µM

Kindly note the recorded DC50 for C[C@@H]1C[C@@H](CCCOc2cccc(-c3ccc(N4CCc5cccc(C(=O)Nc6nc7ccccc7s6)c5C4)nc3C(=O)O)c2C(F)(F)F)CCN1CC(=O)Nc1ccc2c(C3CCC(=O)NC3=O)nn(C)c2c1 (stereo partly drawn) [Compound 215c] , which is 0.01 to 0.1 µM

====

# subject_of_test: Human BCL-XL protein (N-terminal HiBiT tagged BCL-XL expressed in HT1080 cells) (Homo sapiens)
# Construct: expressed in transfected cells; host or cells: HT-1080 (ATCC CCL-121), stably transduced with lentivirus pLV-UBC-N-HiBiT-BCL-XL-PGK-puro and selected with puromycin
# experimental_protocol: HiBiT Based Degradation Assay
# Format: cell-based
# assay_setup: BCL-XL degradation, HT1080 cells expressing N-HiBiT-BCL-XL, 24 hours incubation, normalized with DMSO control; geometric mean for multiple data points; read-out: EC50 (24 h)
measurement_label: DC50

Some compounds with recorded DC50:
compound	DC50
Cc1cc(OC[C@@H]2C[C@H]2C2CCN(CC(=O)Nc3ccc4c(C5CCC(=O)NC5=O)nn(C)c4c3)CC2)ccc1-c1ccc(N2CCc3cccc(C(=O)Nc4nc5ccccc5s4)c3C2)nc1C(=O)O (single isomer, unassigned) [Compound 1003b]	< 10 nM
Cc1c(OC[C@H]2C[C@@H]2CC2CCN(CC(=O)Nc3ccc4c(C5CCC(=O)NC5=O)nn(C)c4c3)CC2)cccc1-c1ccc(N2CCc3cccc(C(=O)Nc4nc5ccccc5s4)c3C2)nc1C(=O)O (single isomer, unassigned) [Compound 1004a]	10 to 100 nM
COc1c(NC(=O)CN2CC[C@H](CCCOc3cccc(-c4ccc(N5CCc6cccc(C(=O)Nc7nc8ccccc8s7)c6C5)nc4C(=O)O)c3C)C[C@H]2C)ccc2c(C3CCC(=O)NC3=O)nn(C)c12 (stereo partly drawn) [Compound 208c]	10 to 100 nM
C[C@@H]1C[C@H](CCCOc2ccc(-c3ccc(N4CCc5cccc(C(=O)Nc6nc7ccccc7s6)c5C4)nc3C(=O)O)c(C(F)(F)F)c2)CCN1CC(=O)Nc1ccc2c(C3CCC(=O)NC3=O)nn(C)c2c1 (stereo partly drawn) [Compound 209c]	< 10 nM
Cn1nc(C2CCC(=O)NC2=O)c2ccc(NC(=O)CN3CCC(CCCOc4ccc(-c5ccc(N6CCc7cccc(C(=O)Nc8nc9ccccc9s8)c7C6)nc5C(=O)O)c(F)c4)CC3)c(F)c21 (stereo not drawn)	10 to 100 nM

Kindly note the recorded DC50 for Cc1cc(OC[C@H]2C[C@H]2C2CCN(CC(=O)Nc3ccc4c(C5CCC(=O)NC5=O)nn(C)c4c3)CC2)ccc1-c1ccc(N2CCc3cccc(C(=O)Nc4nc5ccccc5s4)c3C2)nc1C(=O)O (single isomer, unassigned) [Compound 1003c] , which is < 10 nM

Kindly note the recorded DC50 for COc1c(NC(=O)CN2CCC3(CC2)CC(Oc2cccc(-c4ccc(N5CCc6ccnc(C(=O)Nc7nc8ccccc8s7)c6C5)nc4C(=O)O)c2C(F)(F)F)C3)ccc2c(C3CCC(=O)NC3=O)nn(C)c12 (stereo not drawn) , which is < 10 nM

Kindly note the recorded DC50 for Cc1c(OCC2CC3(CCN(CC(=O)Nc4ccc5c(C6CCC(=O)NC6=O)nn(C)c5c4C(F)(F)F)CC3)C2)cccc1-c1ccc(N2CCc3cccc(C(=O)Nc4nc5ccccc5s4)c3C2)nc1C(=O)O (stereo not drawn) , which is 10 to 100 nM

Kindly note the recorded DC50 for COc1c(NC(=O)CN2CC[C@@H](CCCOc3ccc(-c4ccc(N5CCc6cccc(C(=O)Nc7nc8ccccc8s7)c6C5)nc4C(=O)O)c(C)c3)C[C@H]2C)ccc2c(C3CCC(=O)NC3=O)nn(C)c12 (stereo partly drawn) [Compound 210d] , which is 10 to 100 nM
